Biological target: p110β/p85α (Homo sapiens, UniProt P42338)
Sequence (P42338 whole entry, looked up): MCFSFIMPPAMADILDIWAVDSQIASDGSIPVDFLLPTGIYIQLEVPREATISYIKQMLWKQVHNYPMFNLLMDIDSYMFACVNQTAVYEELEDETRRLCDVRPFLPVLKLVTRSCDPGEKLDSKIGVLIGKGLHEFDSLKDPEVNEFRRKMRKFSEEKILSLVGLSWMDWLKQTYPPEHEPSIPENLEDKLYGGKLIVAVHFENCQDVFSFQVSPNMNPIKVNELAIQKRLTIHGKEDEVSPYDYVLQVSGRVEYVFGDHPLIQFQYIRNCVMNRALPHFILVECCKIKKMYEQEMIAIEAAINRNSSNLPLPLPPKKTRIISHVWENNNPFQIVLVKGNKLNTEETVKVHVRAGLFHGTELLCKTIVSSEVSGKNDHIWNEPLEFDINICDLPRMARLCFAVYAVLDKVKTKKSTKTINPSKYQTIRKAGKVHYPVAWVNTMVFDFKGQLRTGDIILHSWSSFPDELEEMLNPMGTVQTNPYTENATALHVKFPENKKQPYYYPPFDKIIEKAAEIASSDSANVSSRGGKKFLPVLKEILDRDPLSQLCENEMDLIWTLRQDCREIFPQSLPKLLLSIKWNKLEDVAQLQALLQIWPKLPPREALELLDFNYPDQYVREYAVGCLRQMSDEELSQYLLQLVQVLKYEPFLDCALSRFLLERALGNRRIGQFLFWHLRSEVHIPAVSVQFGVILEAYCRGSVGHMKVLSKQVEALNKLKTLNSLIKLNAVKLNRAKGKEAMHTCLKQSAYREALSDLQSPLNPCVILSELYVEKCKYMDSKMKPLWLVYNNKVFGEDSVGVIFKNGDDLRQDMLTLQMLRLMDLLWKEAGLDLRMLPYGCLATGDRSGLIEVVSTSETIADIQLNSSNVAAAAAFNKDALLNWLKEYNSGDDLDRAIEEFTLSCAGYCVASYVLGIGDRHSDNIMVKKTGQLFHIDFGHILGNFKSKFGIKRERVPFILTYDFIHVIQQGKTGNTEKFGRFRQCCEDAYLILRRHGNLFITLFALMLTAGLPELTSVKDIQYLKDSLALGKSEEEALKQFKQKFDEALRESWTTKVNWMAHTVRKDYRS
Experiment: PI3K β inhibition assay (TLC lipid kinase or HTRF)
Format: biochemical
Conditions: read-out: PI3K β IC50
Protocol: Class I PI3-Ks can be either purchased (p110α/p85α, p110β/p85α, p110δ/p85α from Upstate, and p110γ from Sigma) or expressed as previously described (Knight et al., 2004). IC50 values are measured using either a standard TLC assay for lipid kinase activity (described below) or a high-throughput membrane capture assay. […] The TLC plates are then dried, exposed to a phosphorimager screen (Storm, Amersham), and quantitated. […]
pIC50: −log10 of the molar value.
ENDPOINT_NAME: pIC50

Check out these entries, answers already filled in.
compound="CCC(c1cc2ccccc2nc1N1CCCC1)n1nc(-c2cc(O)cc(F)c2)c2c(N)ncnc21 (centres unmarked)" result="< 6.00"
compound=CCc1nc2ccccc2cc1Cn1nc(-c2ccc3nc(N)sc3c2)c2c(N)ncnc21 result="6.00 to 7.00"
compound="CCC(c1cc2ccccc2nc1N1CCN(C)CC1)n1cnc2c(N)ncnc21 (centres unmarked)" result="< 6.00"
compound=Nc1ncc(-c2nn(Cc3cc4ccccc4nc3-c3ccccc3F)c3nccc(N)c23)cn1 result="< 6.00"
compound=Cc1ccccc1-c1nc2ccccc2cc1Cn1nc(-c2cc(O)cc(F)c2)c2c(N)ncnc21 result="< 6.00"

### Prompt State the recorded pIC50 for this entry: CN1CCN(CCc2nc3ccccc3cc2Cn2nc(-c3cc(O)cc(F)c3)c3c(N)ncnc32)CC1
### Response 6.00 to 7.00

### Prompt Another compound to check: Cc1ccccc1-c1nc2ccccc2cc1Cn1nc(-c2ccc3nc(N)ncc3c2)c2c(N)ncnc21
### Response 6.00 to 7.00

### Prompt # repeat for Nc1ncnc2c1c(-c1cc(O)cc(F)c1)nn2Cc1cc2ccccc2[nH]c1=O
### Response < 6.00

### Prompt // same read-out, input: Nc1ncnc2c1c(-c1ccnc(O)c1)nn2Cc1cc2ccccc2nc1-c1ccccc1F
### Response < 6.00

### Prompt CCn1c(=O)c(Cn2nc(-c3cc(O)cc(F)c3)c3c(N)ncnc32)cc2ccccc21 ?
### Response < 6.00

### Prompt Another compound to look at: CC(=O)Nc1nc2ccc(-c3nn(Cc4cc5ccccc5nc4N4CCCC4C)c4ncnc(N)c34)cc2s1 (centres unmarked)
### Response < 6.00

### Prompt Try this compound next: Nc1nc2cc(-c3nn(Cc4cc5ccccc5nc4-c4ccccc4F)c4ncnc(N)c34)ccc2[nH]1
### Response < 6.00

### Prompt Also need Nc1ncnc2c1c(-c1cc(O)cc(F)c1)nn2Cc1nc2ccccc2nc1N1CCCC1 , thanks.
### Response < 6.00

### Prompt Now the same for Nc1ncnc2c1c(I)nn2Cc1cc2ccccc2nc1N1CCCC1
### Response < 6.00

### Prompt Moving on to the next compound: CCn1c(=O)c(Cn2nc(-c3cc(O)cc(F)c3)c3c(N)ncnc32)nc2ccccc21
### Response < 6.00

### Prompt Next: Nc1ccc2cc(-c3nn(Cc4cc5ccccc5nc4-c4ccccc4F)c4ncnc(N)c34)ccc2n1
### Response < 6.00

### Prompt Also, CC(C)Oc1nc2ccccc2cc1Cn1nc(-c2cc(O)cc(F)c2)c2c(N)ncnc21 please.
### Response < 6.00

* * *

molecular target: p110δ/p85α (Homo sapiens (Human)); assay: PI3K δ inhibition assay (TLC lipid kinase or HTRF)
pIC50: −log10 of the molar value.
ENDPOINT_NAME: pIC50

Past entries and their recorded results:
molecule="C[C@@H](O)C#Cc1nn(Cc2cc3ccccc3nc2N2CCCC2)c2ncnc(N)c12 [Compound 41]" endpoint_name=pIC50 result="> 7.00"
molecule=Nc1nc2ccc(-c3nn(Cc4cc5ccccc5nc4N4CCOCC4)c4ncnc(N)c34)cc2s1 endpoint_name=pIC50 result="> 7.00"
molecule=Nc1ncnc2c1c(-c1cnn(CCO)c1)nn2Cc1cc2ccccc2nc1-c1ccccc1 endpoint_name=pIC50 result="6.00 to 7.00"
molecule="CC(c1cc2ccccc2nc1N1CCCC1)n1nc(C#C[C@@H](C)O)c2c(N)ncnc21 (some centres unmarked)" endpoint_name=pIC50 result="> 7.00"
molecule=Cc1ccccc1-c1nc2ccccc2cc1Cn1nc(-c2ccc3cc(N)sc3c2)c2c(N)ncnc21 endpoint_name=pIC50 result="> 7.00"
molecule=Nc1ncnc2c1c(-c1cccc(O)c1)nn2Cc1cc2c(nc1-c1ccccc1F)CCC2 endpoint_name=pIC50 result="< 6.00"
molecule=CC(=O)Nc1nc2ccc(-c3nn(Cc4cc5ccccc5nc4N4CCN(C)CC4)c4ncnc(N)c34)cc2s1 endpoint_name=pIC50 result="> 7.00"
molecule=Nc1ncnc2c1c(-c1cc(O)cc(F)c1)nn2Cc1cc2ccccc2nc1-c1ccccc1 endpoint_name=pIC50 result="> 7.00"
molecule=Nc1ncnc2c1c(-c1cccc3[nH]ncc13)nn2Cc1cc2ccccc2nc1N1CCCC1 endpoint_name=pIC50 result="6.00 to 7.00"
molecule=Nc1nc2ccc(-c3nn(Cc4cc5ccccc5nc4-c4ccccc4C(F)(F)F)c4ncnc(N)c34)cc2[nH]1 endpoint_name=pIC50 result="> 7.00"

Let us examine a further case.
### Prompt Query: pIC50; subject: Nc1ncnc2c1c(-c1ccnc(O)c1)nn2Cc1cc2ccccc2nc1-c1ccccc1
### Response < 6.00

* * *

Target: p110α/p85α (Homo sapiens (Human), UniProt P42336)
Sequence (P42336 whole entry): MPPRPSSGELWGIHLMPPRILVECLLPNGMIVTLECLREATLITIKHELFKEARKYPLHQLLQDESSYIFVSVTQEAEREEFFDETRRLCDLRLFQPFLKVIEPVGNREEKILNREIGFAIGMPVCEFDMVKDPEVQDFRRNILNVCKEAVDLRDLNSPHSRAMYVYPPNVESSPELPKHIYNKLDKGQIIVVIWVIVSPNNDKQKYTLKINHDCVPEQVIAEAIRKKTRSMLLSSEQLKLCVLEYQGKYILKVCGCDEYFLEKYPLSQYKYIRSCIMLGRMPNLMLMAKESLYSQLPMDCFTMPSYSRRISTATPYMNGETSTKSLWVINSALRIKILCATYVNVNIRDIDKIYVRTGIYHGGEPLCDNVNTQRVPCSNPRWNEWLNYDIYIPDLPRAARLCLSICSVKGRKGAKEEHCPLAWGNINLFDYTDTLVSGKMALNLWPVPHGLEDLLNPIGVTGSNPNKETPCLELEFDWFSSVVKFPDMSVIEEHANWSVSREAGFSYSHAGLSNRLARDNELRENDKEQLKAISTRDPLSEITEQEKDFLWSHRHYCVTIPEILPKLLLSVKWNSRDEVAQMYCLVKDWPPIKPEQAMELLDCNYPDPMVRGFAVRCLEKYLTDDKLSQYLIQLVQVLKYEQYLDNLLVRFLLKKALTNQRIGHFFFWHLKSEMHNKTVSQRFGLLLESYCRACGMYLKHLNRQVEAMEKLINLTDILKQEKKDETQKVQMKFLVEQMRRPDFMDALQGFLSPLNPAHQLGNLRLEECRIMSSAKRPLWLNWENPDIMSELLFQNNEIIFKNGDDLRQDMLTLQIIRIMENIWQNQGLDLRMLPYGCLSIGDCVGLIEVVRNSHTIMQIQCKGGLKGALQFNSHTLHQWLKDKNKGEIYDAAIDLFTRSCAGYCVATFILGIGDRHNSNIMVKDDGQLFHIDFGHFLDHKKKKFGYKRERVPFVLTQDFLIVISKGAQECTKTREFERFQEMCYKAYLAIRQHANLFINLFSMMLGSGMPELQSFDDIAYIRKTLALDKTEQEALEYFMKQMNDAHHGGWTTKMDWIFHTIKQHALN
Sequence (P27986 whole entry partner): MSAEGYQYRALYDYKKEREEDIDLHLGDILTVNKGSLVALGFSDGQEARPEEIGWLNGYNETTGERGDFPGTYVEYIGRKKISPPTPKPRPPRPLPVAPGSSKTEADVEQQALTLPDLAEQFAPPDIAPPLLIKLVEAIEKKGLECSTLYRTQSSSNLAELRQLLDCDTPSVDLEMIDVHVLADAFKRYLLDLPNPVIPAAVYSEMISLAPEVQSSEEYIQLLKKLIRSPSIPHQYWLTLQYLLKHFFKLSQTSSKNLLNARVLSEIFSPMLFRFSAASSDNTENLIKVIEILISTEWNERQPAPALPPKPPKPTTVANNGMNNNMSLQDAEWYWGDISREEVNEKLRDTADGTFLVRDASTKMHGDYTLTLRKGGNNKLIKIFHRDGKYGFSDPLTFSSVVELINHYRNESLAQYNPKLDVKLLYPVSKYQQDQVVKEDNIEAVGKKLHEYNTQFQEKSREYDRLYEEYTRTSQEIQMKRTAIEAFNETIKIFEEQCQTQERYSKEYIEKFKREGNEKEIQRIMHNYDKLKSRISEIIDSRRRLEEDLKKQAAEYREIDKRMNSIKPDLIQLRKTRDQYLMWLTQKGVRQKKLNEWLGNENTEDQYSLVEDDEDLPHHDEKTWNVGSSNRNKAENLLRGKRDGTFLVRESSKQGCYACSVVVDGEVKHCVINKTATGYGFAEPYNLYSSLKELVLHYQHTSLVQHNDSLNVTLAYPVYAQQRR
Assay: PI3K α inhibition assay (TLC lipid kinase or HTRF)
Format: biochemical
Method: Class I PI3-Ks can be either purchased (p110α/p85α, p110β/p85α, p110δ/p85α from Upstate, and p110γ from Sigma) or expressed as previously described (Knight et al., 2004). IC50 values are measured using either a standard TLC assay for lipid kinase activity (described below) or a high-throughput membrane capture assay. […] The TLC plates are then dried, exposed to a phosphorimager screen (Storm, Amersham), and quantitated. […]
ENDPOINT_NAME: IC50

Below, each entry is followed by its recorded IC50 result.
chemical_smiles=CNc1ncnc2c1c(-c1cc(O)cc(F)c1)nn2Cc1cc2ccccc2nc1N(C)CCN1CCOCC1 endpoint_name=IC50 result="> 1000 nM"
chemical_smiles=CCn1c(=O)c(Cn2nc(-c3ccc4nc(N)sc4c3)c3c(N)ncnc32)nc2ccccc21 endpoint_name=IC50 result="100 to 1000 nM"

# evaluate next
### Prompt IC50 lookup needed for NC(=O)/C=C/c1nn(Cc2cc3ccccc3nc2-c2ccccc2F)c2ncnc(N)c12 , thanks.
### Response > 1000 nM

* * *

# pIC50 annotations
target: p110α/p85α (Homo sapiens (Human)); assay: PI3K α inhibition assay (TLC lipid kinase or HTRF)
pIC50: −log10 of the molar value.

### Prompt Lab note: need pIC50 with p110α/p85α (Homo sapiens (Human)) for entry Nc1ncnc2c1c(-c1ccc3cn[nH]c3c1)nn2CC1=Cc2ccccc2NC1N1CCCC1 (stereo not shown) [Compound 81] , please look it up.
### Response < 6.00

### Prompt Queued: Nc1ncc2cc(-c3nn(Cc4cc5ccccc5nc4-c4ccccc4F)c4ncnc(N)c34)ccc2n1 [Compound 135]
### Response 6.00 to 7.00

### Prompt Field entry: Nc1ncnc2c1c(-c1cc(O)cc(F)c1)nn2Cc1nc2ccccc2nc1N1CCCC1 [Compound 104]
### Response < 6.00

### Prompt And then CC(c1cc2ccccc2nc1-c1ccccc1)n1nc(-c2cccc(O)c2)c2c(N)ncnc21 (stereo not shown) [Compound 59] , what is it?
### Response < 6.00

### Prompt Record: CC(C)N(C)c1nc2ccccc2cc1Cn1nc(-c2ccc3nc(N)sc3c2)c2c(N)ncnc21 [Compound 154]
### Response > 7.00

### Prompt Moving on to the next compound: CC(=O)Nc1nc2ccc(-c3nn(Cc4cc5ccccc5nc4N4CCOCC4)c4ncnc(N)c34)cc2s1 [Compound 128]
### Response > 7.00

### Prompt Now the compound CC(C)n1c(=O)c(Cn2nc(-c3cccc(O)c3)c3c(N)ncnc32)cc2ccccc21 [Compound 110]
### Response < 6.00

### Prompt Another compound: CCc1nc2ccccc2cc1Cn1nc(-c2cccc(O)c2)c2c(N)ncnc21 [Compound 96]
### Response < 6.00

* * *

Listed below: IC50 values for each entry.
target: p110δ/p85α (Homo sapiens (Human), UniProt O00329); test: PI3K δ inhibition assay (TLC lipid kinase or HTRF)
Sequence (O00329 whole entry): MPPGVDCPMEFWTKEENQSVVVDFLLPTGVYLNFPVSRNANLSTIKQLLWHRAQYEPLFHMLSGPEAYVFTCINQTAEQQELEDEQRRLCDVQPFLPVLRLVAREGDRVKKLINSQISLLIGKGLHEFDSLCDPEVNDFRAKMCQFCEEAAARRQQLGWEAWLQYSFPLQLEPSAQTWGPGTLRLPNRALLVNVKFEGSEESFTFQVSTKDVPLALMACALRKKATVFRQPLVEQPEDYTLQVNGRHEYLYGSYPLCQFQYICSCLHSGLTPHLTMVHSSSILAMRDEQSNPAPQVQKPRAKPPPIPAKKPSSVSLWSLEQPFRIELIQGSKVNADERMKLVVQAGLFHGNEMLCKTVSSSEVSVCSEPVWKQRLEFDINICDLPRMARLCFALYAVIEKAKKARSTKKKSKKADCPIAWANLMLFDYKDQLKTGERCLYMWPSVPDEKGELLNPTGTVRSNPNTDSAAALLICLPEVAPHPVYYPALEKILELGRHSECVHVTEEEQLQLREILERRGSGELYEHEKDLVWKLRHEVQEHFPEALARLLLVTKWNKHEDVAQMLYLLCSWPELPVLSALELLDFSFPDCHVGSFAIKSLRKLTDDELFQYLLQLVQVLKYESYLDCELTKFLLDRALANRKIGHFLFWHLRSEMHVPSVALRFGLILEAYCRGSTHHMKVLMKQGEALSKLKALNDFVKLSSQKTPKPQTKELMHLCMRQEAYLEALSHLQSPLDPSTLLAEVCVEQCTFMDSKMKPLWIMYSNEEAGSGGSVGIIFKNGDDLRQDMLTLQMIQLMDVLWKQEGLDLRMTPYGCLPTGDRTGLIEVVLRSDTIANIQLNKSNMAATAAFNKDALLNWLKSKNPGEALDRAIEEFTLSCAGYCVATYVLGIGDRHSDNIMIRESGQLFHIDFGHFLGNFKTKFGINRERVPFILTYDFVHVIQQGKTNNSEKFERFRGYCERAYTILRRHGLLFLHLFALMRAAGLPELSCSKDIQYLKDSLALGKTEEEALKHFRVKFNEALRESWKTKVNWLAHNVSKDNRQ
Sequence (P27986 whole entry partner): as the sequence (P27986 whole entry partner) above

Before answering, review these 3 worked examples.
compound="Cc1ccccc1-c1nc2c(C)cccc2cc1Cn1nc(I)c2c(N)ncnc21 [Compound 7]" endpoint_name=IC50 result="< 100 nM"
compound="Nc1ncnc2c1c(-c1cc(O)cc(F)c1)nn2Cc1cc2ccccc2nc1NC1CC1 [Compound 29]" endpoint_name=IC50 result="100 to 1000 nM"
compound="Nc1ncnc2c1c(-c1cc(O)cc(F)c1)nn2Cc1cc2ccccc2nc1NC1CCC1 [Compound 42]" endpoint_name=IC50 result="< 100 nM"

Please examine the following record next.
### Prompt IC50 for Cc1cccc2cc(Cn3nc(-c4cc(O)cc(F)c4)c4c(N)ncnc43)c(N3CCCC3)nc12 [Compound 9] ?
### Response < 100 nM
